Origin of the recorded values: paper PMC6941357

# assay_system: CYP2C9 (Homo sapiens, UniProt P11712)
# Sequence (P11712 whole entry): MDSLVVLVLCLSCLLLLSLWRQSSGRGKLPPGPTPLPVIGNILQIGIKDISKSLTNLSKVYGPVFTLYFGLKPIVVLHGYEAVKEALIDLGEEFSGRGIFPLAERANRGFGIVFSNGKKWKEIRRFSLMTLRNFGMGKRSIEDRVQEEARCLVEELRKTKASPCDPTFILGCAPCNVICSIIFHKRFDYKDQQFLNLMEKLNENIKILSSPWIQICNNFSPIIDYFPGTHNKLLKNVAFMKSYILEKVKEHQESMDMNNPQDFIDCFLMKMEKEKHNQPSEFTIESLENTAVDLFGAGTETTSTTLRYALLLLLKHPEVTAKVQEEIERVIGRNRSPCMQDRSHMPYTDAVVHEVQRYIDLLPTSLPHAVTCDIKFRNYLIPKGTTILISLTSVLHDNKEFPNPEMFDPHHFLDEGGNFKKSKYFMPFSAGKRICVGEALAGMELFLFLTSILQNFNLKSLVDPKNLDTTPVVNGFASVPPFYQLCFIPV
# experimental_protocol: in vitro
# experimental_context: microsomes
reported_property: pKi
# pKi: negative log10 of molar concentration; output just the value

Task item: Answer with the recorded pKi for the compound listed here: COc1cc2[nH]c(C)c(-c3ccc(Oc4ccc(OC(F)(F)F)cc4)cc3)c(=O)c2cc1Cl [ELQ300]
Reply: 5.27

###

# experimental_protocol: Bidirectional permeability across Caco-2 cell monolayers
# experimental_context: human, Caco-2
reported_property: efflux ratio
Output: the number by itself.

- Cc1nc(Nc2ncc(N3CCN(C)[C@H](C)C3)c(Nc3cc(C)n(C)n3)n2)cc(C2CC2)c1F [MMV253]: 1
- CC(C)NC(=N)NC(=N)Nc1ccc(Cl)c(Cl)c1 [Chlorproguanil]: 3.2

--- query ---
Task item: Answer with the recorded efflux ratio for the molecule listed here: COc1ccc2nc3cc(Cl)ccc3c(Nc3cc(CN4CCCC4)c(O)c(CN4CCCC4)c3)c2n1 [Pyronaridine]
Reply: 2.6

###

# experimental_protocol: Octanol/pH 7.4 buffer partition coefficient, shake flask
# experimental_context: octanol/pH 7.4 phosphate buffered saline, pH 7.4
reported_property: logD
Output: the number by itself.

Consider the following illustrative entries.
- COc1cc(C)c2c(Oc3cccc(C(F)(F)F)c3)c(OC)cc(NC(C)CCCN)c2n1 (stereo not shown): 4.24
- CC(C)(N)CNC(=O)C[C@H]1CC[C@]2(CC1)OO[C@]1(O2)C2CC3CC(C2)CC1C3: 2.6

--- query ---
Task item: Answer with the recorded logD for the compound listed here: C[C@H]1[C@@H](O)O[C@@H]2O[C@@]3(C)CC[C@H]4[C@H](C)CC[C@@H]1[C@@]24OO3 [Dihydroartemisinin]
Reply: 2.3

###

# maps each entry to its Measured Log D7.4
# experimental_protocol: Octanol/pH 7.4 buffer partition coefficient, shake flask
# experimental_context: octanol/pH 7.4 buffer, shake flask, 37 °C
Output: the number by itself.

- CC1(C)CC(O)(COc2ccc(C3CCC4(CC3)OOC3(O4)C4CC5CC(C4)CC3C5)cc2)CC(C)(C)N1 (stereo not drawn): 5.40

Task item: Answer with the recorded Measured Log D7.4 for the compound listed here: CCc1nc(N)nc(N)c1OCCCOc1ccccc1CCC(=O)O.Cl
Reply: 0.080

Task item: Answer with the recorded Measured Log D7.4 for the compound listed here: CC(C)(C)NCc1cc(Nc2ccnc3cc(Cl)ccc23)c2c(c1O)CCCC2
Reply: 4.18

Task item: Answer with the recorded Measured Log D7.4 for the compound listed here: CN(C)C[c-]1cccc1CNc1ccnc2cc(Cl)ccc12.[Fe+2].c1cc[cH-]c1 (stereo not drawn)
Reply: 3.39

Task item: Answer with the recorded Measured Log D7.4 for the compound listed here: CC(C)(C)NCc1cc(C(C)(C)C)cc(-c2cnc(C(F)(F)F)c(F)c2)c1O
Reply: 5.30

Task item: Answer with the recorded Measured Log D7.4 for the compound listed here: CCN(CC)CCCNc1ccnc2cc(Cl)ccc12.Cl.Cl
Reply: 1.30

###

# Test system: 10% FCS in DMEM
# experimental_protocol: Binding in DMEM with 10% FCS via ultracentrifugation
# Format: in vitro ADME, calf
# Protocol: Dulbecco’s Modified Eagle’s Medium (DMEM) containing GlutaMAX-I was purchased from Invitrogen (Thermo Fisher Scientific) and stored at 4 °C. […] Total matrix and protein free samples were analysed using a matrix matching approach whereby each sample was mixed in a 1:1 ratio with the opposite blank medium (i.e. blank total matrix or blank protein free buffer). […] The standard deviation for fu was calculated using the propagation of errors approach as described previously. […]
// assign 1 (yes) if Fraction unbound, 10% FCS in DMEM falls strictly below 0.2, else 0 (no) (ties count as 0 (no))

Worked set:
* Cc1cc(Nc2ccc(C(F)(F)F)nc2)n2nc(C(C)(F)F)nc2n1 | 0 (no)
* CC(C)(C)NCc1cc(C(C)(C)C)cc(-c2cnc(C(F)(F)F)c(F)c2)c1O | 0 (no)
* CCc1nc(N)nc(N)c1OCCCOc1ccccc1CCC(=O)O.Cl | 0 (no)

Task item: Please determine if COc1cc(N[C@H](C)CCCN)c2nccc(C)c2c1Oc1ccc(Cl)c(Cl)c1 [NPC1161B] is below 0.2 in terms of Fraction unbound, 10% FCS in DMEM.
Reply: 1 (yes)

Task item: Please determine if COc1cc2[nH]c(C)c(-c3ccc(Oc4ccc(OC(F)(F)F)cc4)cc3)c(=O)c2cc1Cl is below 0.2 in terms of Fraction unbound, 10% FCS in DMEM.
Reply: 1 (yes)

Task item: Please determine if CN(C)C[c-]1cccc1CNc1ccnc2cc(Cl)ccc12.[Fe+2].c1cc[cH-]c1 (stereo not shown) is below 0.2 in terms of Fraction unbound, 10% FCS in DMEM.
Reply: 0 (no)

Task item: Please determine if O=C(NCCN1CCCC1)c1cc(-c2ccc(CN3CCOCC3)cc2)nc2ccc(F)cc12 is below 0.2 in terms of Fraction unbound, 10% FCS in DMEM.
Reply: 0 (no)
